- assay_method_text: NCI Yeast Anticancer Drug Screen. Data for the rad18 strain (AID 177)
- condition_set: S. cerevisiae rad18 mutant growth inhibition; at 11.0 µM; hits give high values
This is part of a sample that, as a whole, favours compounds with a hit. Of some 79,000 tested, about 15% had one in any assay.

| compound | units_of_measure | growth inhibition |
| --- | --- | --- |
| CC(C)C1=CC2=C[C@H](O)[C@H]3C(C)(C)CCC[C@]3(C)C2=C(O)C1=O | % | 99 |
| C[CH2][Sn]([CH2]C)([O]C(=O)C(OC(C)=O)c1ccccc1)[O]C(=O)C(OC(C)=O)c1ccccc1 (stereo not given) | % | 37 |
| CCC#CCCCOC(=O)c1cc([N+](=O)[O-])cc([N+](=O)[O-])c1 | % | 20 |
| [N-]=[N+]=NC1=C(c2ccccn2)C(=O)c2cccc3cccc1c23 | % | 12 |
| COc1cc(C2SCC(=O)N2c2ccc(-c3ccc(-n4c(-c5ccccc5)nc5ccccc5c4=O)cc3)cc2)cc(OC)c1OC (stereo not given) | % | 0 |
| O=[N+]([O-])c1ccc2c(c1)C(N1CCN(CCO)CC1)Cc1ccc(F)cc1S2 (stereo not given) | % | -3 |
| COc1ccccc1C(=O)OCC1CCCN2CCCCC12 (stereo not given) | % | 35 |
| Cc1ccc(S(=O)(=O)NC(=O)NC2=NC(C)(C)N(c3ccc(Cl)c(Cl)c3)C(N)=N2)cc1 | % | 4 |
| Cc1ccc(CCC2=CCCc3c2ccc2ccccc32)cc1 | % | -2 |
| CCCCCCCCCCCCCC[N+](C)(CC(=O)[O-])Cc1ccccc1 (stereo not given) | % | 99 |
| O=Nc1c(NO)ccc2nn(-c3ccccc3)nc12 | % | 97 |
| O=C(O)c1ccccc1NC(=S)c1ccccc1 | % | -8 |
| C=CCC1=C(C)C(OC(=O)/C=C/c2ccccc2)CC1=O (stereo not given) | % | -1 |
| C=CC(C)(O)CCC1C(=C)C(O)CC2C(C)(C)CCCC12C (stereo not given) | % | -15 |
| C[C@H](CCC(=O)NN)[C@H]1CC[C@H]2[C@@H]3CC[C@@H]4C[C@H](O)CC[C@]4(C)[C@H]3CC[C@]12C | % | 5 |
| Cc1cc2c(cc1C(=O)CCC(=O)O)CC1(C2)Cc2cc(C)c(C(=O)CCC(=O)O)cc2C1 | % | -3 |
| Nc1ncncc1C(C1=C(O)COC1=O)C1=C(O)COC1=O | % | -1 |
| CCCCN1C(=O)N(c2ccc(OCC)cc2)C2N(CCCC)C1C(C)(C)C2(C)C (stereo not given) | % | 27 |
| CCCCCCCCCCNC(=O)OCC | % | 18 |
| O=[N+]([O-])c1ccc2nc3ccccc3cc2c1 | % | 67 |

###

- assay_method_text: NCI Yeast Anticancer Drug Screen. Data for the sgs1 strain (AID 173);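 also: 0% = growth of vehicle-only control cultures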
- condition_set: S. cerevisiae sgs1 mutant, at 33.0 µM
About 79,000 compounds went through this panel and 15% of them were active in at least one assay; those are over-represented in the sample as a whole. Activity calls are given as the source filed them. No stated cut-off is given here; in the data, active means growth inhibition above about 70%; inactive means the rest.
Possible outcomes: Y = active, N = inactive

| compound | cat |
| --- | --- |
| CC(=O)OCc1ccc(O)c(C=O)c1 | N |
| CN(C)c1ccc(Sc2ccc3nc(N)nc(N)c3c2)cc1 | N |
| O=[N+]([O-])CC(SCc1ccccc1)c1ccc2c(c1)OCO2 (stereo not given) | Y |
| Cc1cc2c(cc1C(=O)CCC(=O)O)CC1(C2)Cc2cc(C)c(C(=O)CCC(=O)O)cc2C1 | N |
| FC(F)(F)c1nc2nc(Cl)c(Cl)nc2n1CCCN1CCOCC1 | N |

###

- assay_method_text: NCI Yeast Anticancer Drug Screen. Data for the mgt1 strain (AID 153)
- condition_set: S. cerevisiae mgt1 mutant growth inhibition; at 33.0 µM
About 79,000 compounds went through this panel and 15% of them were active in at least one assay; those are over-represented in the sample as a whole. Active and inactive are the calls of the source. Cut-off read from the data, not from the text of the source: active = growth inhibition above about 70%; inactive = the rest.
Possible outcomes: true = active, false = inactive

| compound_structure_string | cat |
| --- | --- |
| Nc1ncncc1C(C1=C(O)COC1=O)C1=C(O)COC1=O | false |
| Cc1ccc(Nc2nc3c(=O)n(C)c(=O)n(C)c3nc2Nc2ccc(C)cc2)cc1 | false |
| Fc1ccc(NC(=S)SCc2ccc3c(c2)OCO3)cc1F | true |
| O=Nc1c(NO)ccc2nn(-c3ccccc3)nc12 | true |
| COP(=O)(OC)/C(=C\C1=CN(C(c2ccccc2)(c2ccccc2)c2ccccc2)CN1)NC=O | false |
| OC1CSCCCSCCSCCCSC1 | false |
| NC(=O)NN=C(CS)CS | false |
| S=C(Nc1ccc(Cl)cc1)SC1CCCCC1 | true |

###

- assay_method_text: NCI Yeast Anticancer Drug Screen. Data for the rad50EPP+ strain (AID 151);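 also: 0% = growth of vehicle-treated control cultures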
- condition_set: S. cerevisiae rad50 mutant strain, at 11.0 µM, hits give high values
About 79,000 compounds went through this panel and 15% of them were active in at least one assay; those are over-represented in the sample as a whole.
# growth inhibition annotations

| compound | growth inhibition [%] |
| --- | --- |
| Cn1c(=O)c(-c2ccccc2)c(N=[N+]=[N-])c2ccccc21 | 10 |
| COc1cc(C(=O)/C=C/c2ccccc2O)ccc1O | 99 |
| CC(C)=CC(=O)O[C@@H]1CC(C)(C)CC2C3=CCC4[C@]56CC[C@](O)(OC5)C(C)(C)C6CC[C@@]4(C)C3(C)CC[C@]21C(=O)O (some centres not stated) | 7 |
| O=[N+]([O-])CC(SCc1ccccc1)c1ccc2c(c1)OCO2 (configuration not stated) | 97 |
| O=C(Cc1csc2[n+]1C(=O)/C(=C/c1ccc(Cl)cc1)S2)Nc1ccccc1 | 34 |
| O=C(O)C1OC1(c1cccc(Cl)c1)c1ccccc1Cl (configuration not stated) | 12 |
| Cn1c(=O)c2ccccc2c2ccccc21 | 52 |
| Cc1ccc(N)c(S)c1 | 76 |
| CSc1nc(=S)[nH]c2c1c(C)nn2-c1ccccc1 | -24 |
| C[S+](C)C1(c2ccccc2)C(=O)c2ccccc2C1=O | 9 |
| Cc1ccc(CCC2=CCCc3c2ccc2ccccc32)cc1 | 13 |
| O=C(OCCN1CCCCCC1)C(c1ccsc1)C1CCCCC1 (configuration not stated) | -1 |
| O=C1C=CC(=O)c2c(O)c(Nc3ccc(OC(F)(F)F)cc3)c(Cl)c(O)c21 | 21 |
| CNC(=O)OCc1c(COC(=O)NC)c(-c2ccc(Cl)c(Cl)c2)n2c1CCC2 | -31 |
| O=C(COC(=O)c1cc(O)c(O)c(O)c1)c1ccc(-c2ccccc2)cc1 | 47 |
| CN(CCc1ccccn1)c1ccc2c(c1)Cc1ccccc1-2 | 91 |
| Cc1cc(N=Nc2ccc(S(=O)(=O)[O-])cc2)cc(C(=O)[O-])c1[O-].NC1CCCCC1N.[Na+].[Pt+4] | 99 |
| CCCCCCCCCCCCCCCCCCN(C)CC(COP(=O)([O-])OCC[N+](C)(C)C)OC (configuration not stated) | 98 |
| Nc1ccc2c(c1)C(=O)c1cccc(N)c1C2=O | 92 |
| OC(c1ccc(F)cc1)(c1ccc(F)cc1)C1CC1 | -35 |
| COC(=O)CSSCc1ccc([N+](=O)[O-])cc1 | 70 |
| Cn1ccnc1Oc1ccc(Cl)cc1 | 0 |
| O=C(c1ccc(Cl)cc1)C1OC12C(=O)Nc1ccccc12 (configuration not stated) | 99 |
| Cn1c2ccccc2c(=O)c2cc(NC(=O)CCCCC(=O)Nc3ccc4c(c3)c(=O)c3ccccc3n4C)ccc21 | 14 |
| CCCCCCCCCCC(=O)Cl | 25 |
| [N-]=N[N+]#I1OC(C(F)(F)F)(C(F)(F)F)c2ccccc21 | 42 |
| COc1ccc2c(c1)C(=O)c1ccccc1C2 | 24 |
| CCC/C(Cl)=N\OC(=O)Nc1cccc(C(F)(F)F)c1 | 36 |
| O=C(O)CNc1ccc(Cl)c(Cl)c1 | 6 |
| O=C(O)c1ccccc1NC(=S)c1ccccc1 | 34 |
| Brc1ccc(-c2cc3c(cc2C2SCCS2)OCO3)cc1 | 9 |
| C[C@H](CCC(=O)NN)[C@H]1CC[C@H]2[C@@H]3CC[C@@H]4C[C@H](O)CC[C@]4(C)[C@H]3CC[C@]12C | 4 |

###

# growth inhibition annotations
- assay_method_text: NCI Yeast Anticancer Drug Screen. Data for the mec2-1 strain (AID 157)
- condition_set: S. cerevisiae mec2-1 strain, at 1.2 µM, hits give high values
Compounds without any hit were thinned out: in the full panel of roughly 79,000, 15% have a hit.
observable: growth inhibition (%)

| compound | measured |
| --- | --- |
| CCCCN1C(=O)N(c2ccc(OCC)cc2)C2N(CCCC)C1C(C)(C)C2(C)C (stereo not given) | -5 |
| O=C1C2C=CC1C1C(=O)OC(=O)C21 (stereo not given) | -54 |
| CCOC(=O)C1=C(C(=O)c2ccccc2)C(c2ccccc2[N+](=O)[O-])C(C(=O)c2ccccc2)=C(C(=O)OCC)N1 | -3 |
| CN(Cc1cnc2nc(N)nc(N)c2n1)c1ccc(C(=O)N[C@@H](CCC(=O)O)C(=O)O)cc1 | 1 |
| [N-]=[N+]=NC1=C(c2ccccn2)C(=O)c2cccc3cccc1c23 | 5 |
| Cc1c(Cl)ccc2c1S(=O)(=O)c1cccc(Cl)c1-2 | -24 |
| O=C(c1ccc(Cl)cc1)C1OC12C(=O)Nc1ccccc12 (stereo not given) | 38 |
| O=[N+]([O-])c1ccc2c(c1)C(N1CCN(CCO)CC1)Cc1ccc(F)cc1S2 (stereo not given) | -8 |
| Cc1ccc(-n2cc(-c3ccc(Cl)cc3)c(C#N)c2N)cc1 | 0 |
| CC(C)[N+]([O-])(CCCNc1c2ccccc2nc2cccc([N+](=O)[O-])c12)C(C)C | 13 |
| O=[N+]([O-])/C=C/c1ccc2ccccc2c1 | 2 |
| CC1CCN(CCC(=O)c2ccc(Cl)cc2)CC1 | 0 |
| COC1C=COC2(C)Oc3c(C)c(O)c4c(c3C2=O)/C(=N/C2CCC(O)OC2C)C=C(NC(=O)/C(C)=C\C(=O)C2CC2C(O)C(C)C(O)C(C)C(OC(C)=O)C1C)C4=O (stereo not given) | 0 |
| COC1=CC(=O)C(C2(OC(C)C)OC(=O)C(Cl)=C2Cl)=CC1=O (stereo not given) | 8 |
| O=C(O)c1cccc(-c2c3ccc(=O)cc-3oc3cc(O)ccc23)c1 | 14 |
| O=C(CCCN1CCC2(CC1)CC(=O)N(N1CCCCCC1)C2=O)c1ccc(F)cc1 | 25 |
| COc1ccc2nc3c([N+](=O)[O-])ccc(NCCN(C)C)c3c(NCCN(C)C)c2c1 | -1 |
| CC(C(=O)N1C(=O)N(C(=O)[C@H](C)C(O)c2ccccc2)[C@H](c2ccccc2)[C@H]1c1ccccc1)[C@@H](O)c1ccccc1 (stereo not given in full) | -5 |
| CC[n+]1ccc2c(C)c3[nH]c4ccc(O)cc4c3c(C)c2c1 | -15 |
| OCC(Cn1cncn1)(c1ccc(F)cc1F)n1cncn1 (stereo not given) | 27 |
